Data origin: patent US20050106100A1

Test system: Aminopeptidase N
method: Aminopeptidase N cleavage of test substrates (HPLC)
Assay type: biochemical
runConditions: 1 mM test substrate, 0.02 U APN, 37° C., 25 minutes
In this section we review reported Rate of hydrolysis (min^−1, U^−1) values for a set of compounds.
quantityMeasured: Rate of hydrolysis (min^−1, U^−1)

>>> measuredresult("COc1ccc2cc(C(=O)NCCCCCC(=O)NNC(=O)[C@@H](N)CC(C)C)c(=O)oc2c1")
"0.62 μmoles μmoles (min^−1, U^−1)"
>>> measuredresult("CC(C)C[C@H](N)C(=O)NNc1ccc(C(=O)NCCNC(=O)c2ccc(N/N=C/c3ccccc3S(=O)(=O)O)nc2)cc1")
"0 μmoles μmoles (min^−1, U^−1)"
>>> measuredresult("CC(C)C[C@H](N)C(=O)NNC(=O)c1ccc(N/N=C\\c2ccccc2S(=O)(=O)O)nc1")
"1.2 μmoles μmoles (min^−1, U^−1)"
>>> measuredresult("CC(C)C[C@H](N)C(=O)NNC(=O)c1ccc(CNC(=O)c2ccc(N/N=C/c3ccccc3S(=O)(=O)O)nc2)cc1")
"0.6 μmoles μmoles (min^−1, U^−1)"
>>> measuredresult("CC(C)C[C@H](N)C(=O)Nc1ccc(COC(=O)NNC(=O)CCCCCNC(=O)c2ccc(N/N=C/c3ccccc3S(=O)(=O)O)nc2)cc1")
"0.52 μmoles μmoles (min^−1, U^−1)"
